target: HLA-DR0901 protein (Homo sapiens, UniProt P01903+P01911, A100R/A103E/D57H/D86V/F55Y/F60I/F76Y/I96F/K127E/L162R/M171V/P40D/Q125H/Q99R/R33Q/R42F/S133A/S66N/T210M/V115G/W38K/Y107V/Y59G/Y89S); assay: Peptide binding competition assay, DR0901
Residues, ends and D or L forms follow the SMILES beside them.
// reported Kd for each item listed
readout: Kd (nM)

molecule	readout	readout-unit	test-result
CC[C@H](C)[C@H](NC(=O)[C@H](CCCCN)NC(=O)[C@H](CC(=O)O)NC(=O)[C@H](CC(C)C)NC(=O)[C@H](CO)NC(=O)[C@H](Cc1ccc(O)cc1)NC(=O)[C@H](CC(N)=O)NC(=O)[C@H](CC(C)C)NC(=O)[C@H](CC(N)=O)NC(=O)[C@@H](N)CC(C)C)C(=O)N[C@H](C(=O)N[C@H](C(=O)N[C@@H](CC(=O)O)C(=O)O)C(C)C)[C@@H](C)CC [LNLNYSLDKIIVD] (H-LNLNYSLDKIIVD-OH)	Kd	nM	450
CC[C@H](C)[C@H](NC(=O)[C@H](CCCCN)NC(=O)[C@H](CC(=O)O)NC(=O)[C@H](CC(C)C)NC(=O)[C@H](CO)NC(=O)[C@H](Cc1ccc(O)cc1)NC(=O)[C@H](CC(N)=O)NC(=O)[C@H](Cc1ccccc1)NC(=O)[C@H](CC(N)=O)NC(=O)[C@@H](N)CC(C)C)C(=O)N[C@@H](CC(=O)O)C(=O)N[C@H](C(=O)N[C@@H](CC(=O)O)C(=O)O)C(C)C [LNFNYSLDKIDVD] (H-LNFNYSLDKIDVD-OH)	Kd	nM	790

---

target: HLA-DR0901 protein (Homo sapiens, UniProt P01903+P01911, A100R/A103E/D57H/D86V/F55Y/F60I/F76Y/I96F/K127E/L162R/M171V/P40D/Q125H/Q99R/R33Q/R42F/S133A/S66N/T210M/V115G/W38K/Y107V/Y59G/Y89S); test: Peptide binding competition assay, DR0901
pKd: −log10 of the molar value. Residues, ends and D or L forms follow the SMILES beside them.
readout: pKd

compound	test-result
CC[C@H](C)[C@H](NC(=O)[C@H](CCCCN)NC(=O)[C@H](CC(=O)O)NC(=O)[C@H](CC(C)C)NC(=O)[C@H](CO)NC(=O)[C@H](Cc1ccc(O)cc1)NC(=O)[C@H](CC(N)=O)NC(=O)[C@H](Cc1ccccc1)NC(=O)[C@H](CC(N)=O)NC(=O)[C@@H](N)CC(C)C)C(=O)N[C@@H](C)C(=O)N[C@H](C(=O)N[C@@H](CC(=O)O)C(=O)O)C(C)C [LNFNYSLDKIAVD] (H-LNFNYSLDKIAVD-OH)	6.03
CC[C@H](C)[C@H](NC(=O)[C@H](CCCCN)NC(=O)[C@H](CC(=O)O)NC(=O)[C@H](CC(C)C)NC(=O)[C@H](CCSC)NC(=O)[C@H](Cc1ccc(O)cc1)NC(=O)[C@H](CC(N)=O)NC(=O)[C@H](Cc1ccccc1)NC(=O)[C@H](CC(N)=O)NC(=O)[C@@H](N)CC(C)C)C(=O)N[C@H](C(=O)N[C@H](C(=O)N[C@@H](CC(=O)O)C(=O)O)C(C)C)[C@@H](C)CC [LNFNYMLDKIIVD] (H-LNFNYMLDKIIVD-OH)	6.84
